- ASSAYED TARGET: T1, human IL12Rβ2 extracellular domain Fc-fusion (human, UniProt Q99665 24-622)
- T1 construct: extracellular domain; bought; also called IL12Rβ2-Fc; hIL-12Rβ2-Fc
- T1 sequence (looked up): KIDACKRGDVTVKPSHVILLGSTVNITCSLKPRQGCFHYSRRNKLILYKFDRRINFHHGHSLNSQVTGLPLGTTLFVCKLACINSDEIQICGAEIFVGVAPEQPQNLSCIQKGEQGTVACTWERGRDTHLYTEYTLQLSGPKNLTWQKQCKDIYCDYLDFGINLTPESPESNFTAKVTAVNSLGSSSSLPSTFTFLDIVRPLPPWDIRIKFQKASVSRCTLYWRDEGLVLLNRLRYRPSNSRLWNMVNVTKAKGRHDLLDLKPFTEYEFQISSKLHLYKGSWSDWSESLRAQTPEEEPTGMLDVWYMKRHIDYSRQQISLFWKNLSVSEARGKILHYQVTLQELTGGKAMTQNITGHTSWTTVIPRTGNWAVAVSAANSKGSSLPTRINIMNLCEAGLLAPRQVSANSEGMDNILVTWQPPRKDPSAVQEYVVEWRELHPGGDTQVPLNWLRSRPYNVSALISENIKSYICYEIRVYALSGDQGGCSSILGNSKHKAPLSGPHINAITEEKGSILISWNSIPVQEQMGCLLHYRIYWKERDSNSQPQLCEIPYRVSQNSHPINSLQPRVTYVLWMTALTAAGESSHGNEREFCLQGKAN
- PROTOCOL SUMMARY: competition ELISA, coated IL-12 + IL12Rβ2-Fc
VALUE KIND: pIC50
Answers are plain numbers, as −log10 of the molar value.

BINDER	pIC50
IL12Rb2#1: 135B08 (VHH, also called IL12Rβ2#1; LG135B08) VHH: EVQLVESGGRLVQAGDSLRLSCAASGRTFISYRMGWFRQAPGKEREFVAALRWSSSNIDYTYYADSVKGRFSISGDYAKNTVYLQMNSLKAEDTAVYYCAASTRWGVMESDTEYTSWGQGTLVTVSS	8.38
IL12Rb2#2-35GS-CD4#8 (bispecific antibody, defined by its make-up) EVQLVESGGRLVQAGDSLRLSCAASGRTFTSYRMGWFRQAPGKEREFVSALRWSSGNIDYTYYADSVKGRFSISGDYAKNTVYLQMNSLKAEDTAVYYCAASTRWGVMESDTEYTSWGQGTLVTVSSGGGGSGGGGSGGGGSGGGGSGGGGSGGGGSGGGGSEVQLVESGGGSVQPGGSLTLSCGTSGRTFNVMGWFRQAPGKEREFVAAVRWSSTGIYYTQYADSVKSRFTISRDNAKNTVYLEMNSLKPEDTAVYYCAADTYNSNPARWDGYDFRGQGTLVTVSS	7.96

Each of the following entries comes with a recorded value; kindly state pIC50 for each.
1. CD4#8-35GS-IL12Rb2#2 (bispecific antibody, defined by its make-up) EVQLVESGGGSVQPGGSLTLSCGTSGRTFNVMGWFRQAPGKEREFVAAVRWSSTGIYYTQYADSVKSRFTISRDNAKNTVYLEMNSLKPEDTAVYYCAADTYNSNPARWDGYDFRGQGTLVTVSSGGGGSGGGGSGGGGSGGGGSGGGGSGGGGSGGGGSEVQLVESGGRLVQAGDSLRLSCAASGRTFTSYRMGWFRQAPGKEREFVSALRWSSGNIDYTYYADSVKGRFSISGDYAKNTVYLQMNSLKAEDTAVYYCAASTRWGVMESDTEYTSWGQGTLVTVSS
2. CD4#8-35GS-IL12Rb2#1 (bispecific antibody, defined by its make-up) EVQLVESGGGSVQPGGSLTLSCGTSGRTFNVMGWFRQAPGKEREFVAAVRWSSTGIYYTQYADSVKSRFTISRDNAKNTVYLEMNSLKPEDTAVYYCAADTYNSNPARWDGYDFRGQGTLVTVSSGGGGSGGGGSGGGGSGGGGSGGGGSGGGGSGGGGSEVQLVESGGRLVQAGDSLRLSCAASGRTFISYRMGWFRQAPGKEREFVAALRWSSSNIDYTYYADSVKGRFSISGDYAKNTVYLQMNSLKAEDTAVYYCAASTRWGVMESDTEYTSWGQGTLVTVSS
3. IL12Rb2#1-35GS-CD4#8 (bispecific antibody, defined by its make-up (Nb1-Nb2)) EVQLVESGGRLVQAGDSLRLSCAASGRTFISYRMGWFRQAPGKEREFVAALRWSSSNIDYTYYADSVKGRFSISGDYAKNTVYLQMNSLKAEDTAVYYCAASTRWGVMESDTEYTSWGQGTLVTVSSGGGGSGGGGSGGGGSGGGGSGGGGSGGGGSGGGGSEVQLVESGGGSVQPGGSLTLSCGTSGRTFNVMGWFRQAPGKEREFVAAVRWSSTGIYYTQYADSVKSRFTISRDNAKNTVYLEMNSLKPEDTAVYYCAADTYNSNPARWDGYDFRGQGTLVTVSS
4. IL12Rb2#2: 135A07 (VHH, also called IL12Rβ2#2; LG135A07) VHH: EVQLVESGGRLVQAGDSLRLSCAASGRTFTSYRMGWFRQAPGKEREFVSALRWSSGNIDYTYYADSVKGRFSISGDYAKNTVYLQMNSLKAEDTAVYYCAASTRWGVMESDTEYTSWGQGTLVTVSS

[7.60, 8.00, 8.32, 7.82]
